# Tested on: Saccharomyces cerevisiae
# PROTOCOL NOTES: protein stability index of tFT-peptide fusion (C-terminal peptide) (PSI (0-1 scale)); higher = more stable (slower turnover)
# CONDITION LABEL: genetic background: wild type; temperature: 30 C
Bucketed by reported protein stability index, buckets being low = under 0.6, medium = from 0.6 up to 0.7, high = 0.7 and over

{"INPUT SEQUENCE": "LGSNCVFLAIFR [YPL222C-A C-terminal 12 aa]", "GROUP": "medium"}
{"INPUT SEQUENCE": "IWLVYKLYCFIF [CST26 C-terminal 12 aa]", "GROUP": "low"}
{"INPUT SEQUENCE": "YWRKQYPDADIP [YCR007C C-terminal 12 aa]", "GROUP": "high"}

In plain terms, what class is KTFWDKFWNVVA [CAN1 C-terminal 12 aa] ?
low

Cool, now CFSCFHLSTHTN [YDR157W C-terminal 12 aa]
medium

* * *

# Tested on: Saccharomyces cerevisiae
# PROTOCOL NOTES: protein stability index of tFT-peptide fusion (C-terminal peptide) (PSI (0-1 scale)); higher = more stable (slower turnover)
# CONDITION LABEL: genetic background: wild type; temperature: 30 C
Exercise: for every item that follows, state its recorded protein stability index.
One number for each entry.

Look over these answered cases.
{"INPUT SEQUENCE": "AFFLLVSLLVSP", "protein stability index": 0.204}
{"INPUT SEQUENCE": "LPWLTASRLVMR", "protein stability index": 0.714}
{"INPUT SEQUENCE": "ILLSLSRWGMAG", "protein stability index": 0.723}
{"INPUT SEQUENCE": "PAPPVFVPSLPL", "protein stability index": 0.801}
{"INPUT SEQUENCE": "PPPPLSPPPEPR", "protein stability index": 0.659}

Hi, could you look up protein stability index for each item in my list?
1. WGGGGWRGGGAR
2. ATYNRPPPPGLD
3. PEPEPAGASQKR
4. APNPPPPPPPLP
5. PPPPLPSPAPRP
6. VFGRGGRGGPLG

[0.747, 0.682, 0.577, 0.729, 0.735, 0.647]

Below are some sequences; for each one, tell me its protein stability index.
1. AWVVFGLRFGFD
2. GGVVGVEWGAVG
3. VLRPVSCTKLAA
4. IPVGTVGTLNAA

1. 0.534
2. 0.626
3. 0.656
4. 0.66

Please give protein stability index for each item listed below.
1. YMNLYKNVISVT
2. YENFHTRFAVGV
3. LRSPPSLLPLSL
4. CMGSDKAGKSVA

[0.408, 0.504, 0.706, 0.681]

* * *

Would you mind telling me the reported protein stability index of each entry?
# System: Saccharomyces cerevisiae
# PROTOCOL NOTES: protein stability index of tFT-peptide fusion (C-terminal peptide) (PSI (0-1 scale)); higher = more stable (slower turnover)
# CONDITION LABEL: genetic background: doa10 deletion; temperature: 30 C
Answers are plain numbers.

{"INPUT SEQUENCE": "FPPFALLLIIND", "protein stability index": 0.415}

Respectfully, I request protein stability index for each entry included below.
1. LLLFSFAALANF
2. WAAVGIQLRLLF
3. FFAIFSLLLSFT
4. PLVLPPINLFLV

1: 0.245; 2: 0.233; 3: 0.399; 4: 0.0842

Report protein stability index for each item below.
1. WYVRVYVLSVES
2. ARALLGVGWYWV
3. CGWVRRARVKMM
4. FVVWKDVLVMVR
5. LLHFVLYFLSCT

1: 0.137; 2: 0.225; 3: 0.114; 4: 0.158; 5: 0.42
